assay: Turbidimetric aqueous solubility; assay type: physicochemical; conditions: pH 7.4, turbidimetric
Could you please report measured solubility at 2 h for the items listed next?
Give the value; after it, write the unit.

Study these solved cases before continuing.
[[record]]
molecular_string = "CS(=O)(=O)c1ccc(Nc2ncnc3cc(-c4cccnc4Cl)sc23)cc1"
endpoint_result = "10 µM"

[[record]]
molecular_string = "Cc1ncccc1-c1cc2ncnc(Nc3ccc(N4CCCC4=O)cc3)c2s1"
endpoint_result = "10 µM"

[[record]]
molecular_string = "Cc1ncccc1-c1cc2c(Nc3ccc(S(C)(=O)=O)cc3)ncnc2s1"
endpoint_result = "10 µM"

[[record]]
molecular_string = "CS(=O)(=O)c1ccc(Nc2ncnc3sc(-c4ccccc4)cc23)cc1"
endpoint_result = "1 µM"

[[record]]
molecular_string = "Cn1cc(-c2cc3c(Nc4ccc(S(C)(=O)=O)cc4)ncnc3s2)cn1"
endpoint_result = "30 µM"


I would be grateful if you could provide solubility at 2 h for each of the following entries.
1. CS(=O)(=O)c1ccc(Nc2ncnc3sc(-c4cccnc4Cl)cc23)cc1
2. Cc1cnccc1-c1cc2c(Nc3ccc(S(C)(=O)=O)cc3)ncnc2s1
3. CSc1ccc(Nc2ncnc3cc(-c4cccnc4Cl)sc23)cc1
4. Cc1ncccc1-c1cc2ncnc(Nc3ccc(C4CC4)cc3)c2s1
5. CS(=O)(=O)c1ccc(Nc2ncnc3scc(Cl)c23)cc1

1: 3 µM; 2: 30 µM; 3: 10 µM; 4: 3 µM; 5: 10 µM

I would be grateful if you could provide solubility at 2 h for each of the following entries.
1. Cc1ccncc1-c1cc2c(Nc3ccc(S(C)(=O)=O)cc3)ncnc2s1
2. CSc1ccc(Nc2ncnc3sc(-c4ccncc4C)cc23)cc1

["30 µM", "3 µM"]

###

Could you please report measured pIC50 for the items listed next?
molecular target: PI5P4Kγ+ (Homo sapiens, UniProt Q8TBX8, D138G/D197E/E133P/E135D/E153T/E196G/G139A/N195G/S132L/S134N); assay: biochemical; conditions: PI5P4Kγ+ pIC50, ADP-Glo; footnote a: inconsistent replicates, value shown is upper limit
Sequence (Q8TBX8 with tags, fused parts or gaps with the stated changes): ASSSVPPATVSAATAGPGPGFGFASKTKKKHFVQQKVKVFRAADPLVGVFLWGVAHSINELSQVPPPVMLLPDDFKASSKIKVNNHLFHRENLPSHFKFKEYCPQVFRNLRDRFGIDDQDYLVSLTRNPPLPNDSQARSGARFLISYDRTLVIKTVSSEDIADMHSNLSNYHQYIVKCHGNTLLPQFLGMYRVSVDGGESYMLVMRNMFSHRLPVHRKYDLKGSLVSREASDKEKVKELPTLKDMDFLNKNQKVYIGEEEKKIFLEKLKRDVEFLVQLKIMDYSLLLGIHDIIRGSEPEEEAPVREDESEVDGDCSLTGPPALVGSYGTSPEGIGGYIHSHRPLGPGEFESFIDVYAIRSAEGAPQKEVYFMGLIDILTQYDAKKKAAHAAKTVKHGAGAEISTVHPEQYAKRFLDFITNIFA
Answers are plain numbers, as −log10 of the molar value.

Study these solved cases before continuing.
[[record]]
molecule = "Cc1ncccc1-c1cc2ncnc(Nc3ccc(S(F)(F)(F)(F)F)cc3)c2s1 [Compound 40]"
endpoint_result = 7.00

[[record]]
molecule = "COc1ccc(Nc2ncnc3sc(-c4cccnc4C)cc23)cc1 [Compound 20]"
endpoint_result = 5.70

[[record]]
molecule = "Cc1ccc(Nc2ncnc3sc(-c4cccnc4C)cc23)c(C)c1 [Compound 19]"
endpoint_result = 5.40


I would be grateful if you could provide pIC50 for each of the following entries.
1. CS(=O)(=O)c1ccc(Nc2ncnc3ccsc23)cc1 [Compound 36]
2. CSc1ccc(Nc2ncnc3sc(-c4cnoc4)cc23)cc1 [Compound 29]
3. Cc1ncccc1-c1cc2ncnc(Nc3ccc(N4CCCC4=O)cc3)c2s1 [Compound 42]
4. CS(=O)(=O)c1ccc(Nc2ncnc3sc(-c4ccncc4)cc23)cc1 [Compound 6]
5. CS(=O)(=O)c1ccc(Nc2ncnc3sc(-c4ccnc(Cl)c4)cc23)cc1 [Compound 13]
6. COc1ccc(Nc2ncnc3sc(-c4ccncc4C)cc23)cc1 [Compound 27]
7. CS(=O)(=O)c1ccc(Nc2ncnc3scc(Cl)c23)cc1 [Compound 32]

7.30
7.40
8.10
7.70
7.20
6.20
7.30

I would be grateful if you could provide pIC50 for each of the following entries.
1. CCc1ccc(Nc2ncnc3sc(-c4cccnc4C)cc23)cc1 [Compound 23]
2. COc1ccc(-n2ncc3c(Nc4ccc(OC)c(Cl)c4)ncnc32)cc1 [Compound 4, reference compound]
3. Cc1ccncc1-c1cc2c(Nc3ccc(S(C)(=O)=O)cc3)ncnc2s1 [Compound 14]
4. Cc1ccc(Nc2ncnc3sc(-c4cccnc4C)cc23)cc1C [Compound 18]

6.40
4.90
7.90
5.90

I would be grateful if you could provide pIC50 for each of the following entries.
1. CSc1ccc(Nc2ncnc3sc(-c4cccnc4Cl)cc23)cc1 [Compound 28]
2. CSc1ccc(Nc2ncnc3sc(-c4cccnc4C)cc23)cc1 [Compound 25]
3. Cc1ncccc1-c1cc2c(Nc3ccc(S(C)(=O)=O)cc3)ncnc2s1 [Compound 17]

7.70
7.30
7.70

Write down pIC50 measured for item CSc1ccc(Nc2ncnc3cc(-c4cccnc4Cl)sc23)cc1 [Compound 39]
8.10

###

Could you please report measured P app (A2B) for the items listed next?
system: MDCK-MDR1 cells; assay: MDR1-MDCK bi-directional permeability and efflux; conditions: MDCK-MDR1 cells; A2B; 10 µM

Study these solved cases before continuing.
[[record]]
compound = "CS(=O)(=O)c1ccc(Nc2ncnc3sc(-c4cccnc4Cl)cc23)cc1 [Compound 15]"
endpoint_result = "4.73 10^−6 cm s^−1"

[[record]]
compound = "CSc1ccc(Nc2ncnc3sc(-c4ccncc4C)cc23)cc1 [Compound 26]"
endpoint_result = "3.7 ^d 10^−6 cm s^−1"

[[record]]
compound = "CS(=O)(=O)c1ccc(Nc2ncnc3cc(-c4cccnc4Cl)sc23)cc1 [Compound 37]"
endpoint_result = "1.33 10^−6 cm s^−1"

[[record]]
compound = "Cc1cnccc1-c1cc2c(Nc3ccc(S(C)(=O)=O)cc3)ncnc2s1 [Compound 10]"
endpoint_result = "3.13 10^−6 cm s^−1"


In the following, a different compound is considered.
Fetch value of P app (A2B) on MDCK-MDR1 cells for Cc1ncccc1-c1cc2ncnc(Nc3ccc(C4CC4)cc3)c2s1 [Compound 38] .
9.95 10^−6 cm s^−1

###

test system: PI5P4Kγ+; conditions: ratio PI5P4Kα IC50 / PI5P4Kγ+ IC50, ADP-Glo
assay_endpoint: Fold-selectivity (α IC50/γ IC50)

I would be grateful if you could provide Fold-selectivity (α IC50/γ IC50) for each of the following entries.
1. CS(=O)(=O)c1ccc(Nc2ncnc3sc(-c4ccncc4)cc23)cc1
2. CCc1ccc(Nc2ncnc3sc(-c4cccnc4C)cc23)cc1
3. Cc1sc2ncnc(Nc3ccc(S(C)(=O)=O)cc3)c2c1C
4. Cc1ccc(Nc2ncnc3sc(-c4cccnc4C)cc23)cc1C
5. Cc1csc2ncnc(Nc3ccc(S(C)(=O)=O)cc3)c12
6. Cc1ncccc1-c1cc2ncnc(Nc3ccc4ncoc4c3)c2s1
7. CS(=O)(=O)c1ccc(Nc2ncnc3sc(-c4ccncc4F)cc23)cc1
8. Cc1ncccc1-c1cc2ncnc(Nc3ccc(S(F)(F)(F)(F)F)cc3)c2s1

63
1.6
>250
0.25
>980
5.9
>250
6.3

I would be grateful if you could provide Fold-selectivity (α IC50/γ IC50) for each of the following entries.
1. COc1cnccc1-c1cc2c(Nc3ccc(S(C)(=O)=O)cc3)ncnc2s1
2. CS(=O)(=O)c1ccc(Nc2ncnc3sc(-c4cccnc4F)cc23)cc1
3. CSc1ccc(Nc2ncnc3sc(-c4cccnc4C)cc23)cc1
4. Cc1ccc(Nc2ncnc3sc(-c4cccnc4C)cc23)cc1
5. CN(C(=O)c1csc2ncnc(Nc3ccc(S(C)(=O)=O)cc3)c12)c1ccccc1
6. CS(=O)(=O)c1ccc(Nc2ncnc3sc(-c4cccnc4)cc23)cc1

79
50
5.0
0.4
50
130

I would be grateful if you could provide Fold-selectivity (α IC50/γ IC50) for each of the following entries.
1. CSc1ccc(Nc2ncnc3sc(-c4cnoc4)cc23)cc1
2. Cc1cccc(Nc2ncnc3sc(-c4cccnc4C)cc23)c1
3. Cc1ncccc1-c1cc2c(Nc3ccc(C4CC4)cc3)ncnc2s1
4. CSc1ccc(Nc2ncnc3sc(-c4c(C)noc4C)cc23)cc1

6.0
0.63
2.5
6.3

###

target: PI5P4Kγ+ (Homo sapiens, UniProt Q8TBX8, D138G/D197E/E133P/E135D/E153T/E196G/G139A/N195G/S132L/S134N); assay: biochemical; details: PI5P4Kγ+ pIC50, ADP-Glo; footnote a: inconsistent replicates, value shown is upper limit
assay_endpoint: pIC50
Answers are plain numbers, as −log10 of the molar value.

Study these solved cases before continuing.
[[record]]
molecule = "CS(=O)(=O)c1ccc(Nc2ncnc3sc(-c4cccnc4Cl)cc23)cc1 [Compound 15]"
endpoint_result = 7.90

[[record]]
molecule = "CS(=O)(=O)c1ccc(Nc2ncnc3sc(-c4cccnc4)cc23)cc1 [Compound 9]"
endpoint_result = 7.50

[[record]]
molecule = "CSc1ccc(Nc2ncnc3sc(-c4ccncc4C)cc23)cc1 [Compound 26]"
endpoint_result = 7.70

[[record]]
molecule = "Cc1ncccc1-c1cc2ncnc(Nc3ccc(C4CC4)cc3)c2s1 [Compound 38]"
endpoint_result = 7.30

[[record]]
molecule = "Cc1cnccc1-c1cc2c(Nc3ccc(S(C)(=O)=O)cc3)ncnc2s1 [Compound 10]"
endpoint_result = 7.90


I would be grateful if you could provide pIC50 for each of the following entries.
1. CN(C(=O)c1csc2ncnc(Nc3ccc(S(C)(=O)=O)cc3)c12)c1ccccc1 [Compound 34]
2. CSc1ccc(Nc2ncnc3sc(-c4c(C)noc4C)cc23)cc1 [Compound 30]
3. Cc1ncccc1-c1cc2ncnc(Nc3ccc4ncoc4c3)c2s1 [Compound 41]
4. Cc1ncccc1-c1cc2c(Nc3ccc(C4CC4)cc3)ncnc2s1 [Compound 24]

7.30
7.60
6.30
7.00
